The values you see were collected from PubChem BioAssay AID2716.

Reported growth rescue values for a set of compounds
test: restored growth of temperature-sensitive Mot1-301 yeast – S. cerevisiae, ATP luminescence, 38.5C, SUMOylation pathway inhibitor project, primary screen (AID 2716);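 also: OY570 slx delta 5 strain wells were the positive control but not used for scaling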; conditions: S. cerevisiae Mot1-301 growth rescue, at 18.8 µM, stronger effect = higher value, percent above DMSO median, 100 means doubled
Among all 320,000 compounds or so, about 3,300 (1%) were called active. The full list was thinned out, with actives kept by preference.

| compound | growth rescue, % |
| --- | --- |
| Cc1ccc([C@@H]2CC=C(C(=O)O)[C@H](c3cccc(Cl)c3)N2S(=O)(=O)c2ccc(C)cc2)cc1 | 24.4 |
| Cc1ccc(N(C(=O)Cc2cccs2)C(C(=O)NCC2CCCO2)c2ccncc2)cc1 (stereo not given) | 5.34 |
| CCCCn1c(SCC(=O)NCCc2ccc(OC)c(OC)c2)nc2c1c(=O)n(C)c(=O)n2C | -22.4 |
| CCOc1ccc(Oc2nc(C)cc(OC)n2)nn1 | -10.1 |
| CCOc1ccc(Cn2c(SCCCCC#N)nc3c2c(=O)n(C)c(=O)n3C)cc1OCC | 395 |
| O=C(NCC(=O)N(c1ccccc1)C(C(=O)NCC1CCCO1)c1ccccc1)c1cccs1 (stereo not given) | 679 |
| CC(CNc1ccc([N+](=O)[O-])c2cccnc12)Nc1c([N+](=O)[O-])cc(C(F)(F)F)cc1[N+](=O)[O-] (stereo not given) | 469 |
| COc1ccccc1CNS(=O)(=O)c1cc2c3c(c1)CCC(=O)N3CCC2 | -12.2 |
| COC(=O)c1cccc(N(C(=O)CNC(=O)c2cccs2)C(C(=O)NCC2CCCO2)c2ccc(OC)c(OC)c2)c1 (stereo not given) | -4.04 |
| O=C(O)CCCCCCCCCC[n+]1ccccc1 | 17.1 |
